Item-by-item account of IC50
biological target: recombinant human MMP-9 (Homo sapiens (Human), UniProt P14780); experiment: MMP selectivity assay, MMP-9; conditions: Table 2 selectivity profile; read-out: IC50, Target: MMP 9
Sequence (P14780 94-707): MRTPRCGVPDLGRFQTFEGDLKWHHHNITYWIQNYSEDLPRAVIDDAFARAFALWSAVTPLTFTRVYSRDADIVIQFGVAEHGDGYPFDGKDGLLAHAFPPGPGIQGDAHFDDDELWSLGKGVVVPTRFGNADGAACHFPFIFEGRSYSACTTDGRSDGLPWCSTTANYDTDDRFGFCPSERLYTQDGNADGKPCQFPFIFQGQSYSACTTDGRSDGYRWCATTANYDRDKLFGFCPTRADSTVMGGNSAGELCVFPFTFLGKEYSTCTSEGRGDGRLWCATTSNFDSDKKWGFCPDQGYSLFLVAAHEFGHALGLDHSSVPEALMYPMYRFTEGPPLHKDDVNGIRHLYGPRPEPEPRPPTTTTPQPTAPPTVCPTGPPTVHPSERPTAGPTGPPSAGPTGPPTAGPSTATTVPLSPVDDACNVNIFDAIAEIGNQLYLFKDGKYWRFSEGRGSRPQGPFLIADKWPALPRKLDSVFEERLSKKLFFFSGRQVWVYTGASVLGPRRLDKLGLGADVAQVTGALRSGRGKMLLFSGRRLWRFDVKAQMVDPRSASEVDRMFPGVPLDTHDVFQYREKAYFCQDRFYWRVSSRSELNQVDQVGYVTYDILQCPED

Previously resolved entries follow.
Cc1cc(/C=C/c2ccc(Sc3cnn(C)c3C3NC(=O)NC3=O)cc2)ccn1 (centres unmarked) | > 100 nM
CCC1(c2occc2Sc2ccc(/C=C/c3ccnc(C)c3)cc2)NC(=O)NC1=O (centres unmarked) | 10 to 100 nM
Cc1cc(/C=C/c2ccc(Sc3ccncc3C3NC(=O)NC3=O)cc2)ccn1 (centres unmarked) | > 100 nM
Cc1cc(C#Cc2ccc(Sc3ccncc3C3NC(=O)NC3=O)cc2)ccn1 (centres unmarked) | > 100 nM
Cc1cc(C#Cc2ccc(Oc3ccncc3C3NC(=O)NC3=O)cc2)ccn1 (centres unmarked) | > 100 nM

Ask: Please report the recorded IC50 for Cc1cc(C#Cc2ccc(Sc3ccsc3C3NC(=O)NC3=O)cc2)ccn1 (centres unmarked) .
Result: > 100 nM

Ask: Please report the recorded IC50 for Cc1cc(/C=C/c2ccc(Sc3ccsc3C3NC(=O)NC3=O)cc2)ccn1 (centres unmarked) .
Result: 10 to 100 nM

Ask: Please report the recorded IC50 for Cc1cc(/C=C/c2ccc(Oc3ccncc3C3NC(=O)NC3=O)cc2)ccn1 (centres unmarked) .
Result: > 100 nM

Ask: Please report the recorded IC50 for Cc1cc(C#Cc2ccc(Sc3ccoc3C3NC(=O)NC3=O)cc2)ccn1 (centres unmarked) .
Result: > 100 nM

Ask: Please report the recorded IC50 for Cc1cc(/C=C/c2ccc(Sc3ccoc3C3NC(=O)NC3=O)cc2)ccn1 (centres unmarked) .
Result: 10 to 100 nM

Ask: Please report the recorded IC50 for Cc1cc(C#Cc2ccc(Sc3cnn(C)c3C3NC(=O)NC3=O)cc2)ccn1 (centres unmarked) .
Result: > 100 nM
